test system: SK-MEL-5 melanoma; experiment: NCI-60 one-dose screen, 48 h; settings: 10 µM unless noted
Compounds without any hit were thinned out: in the full panel of roughly 83,000, 20% have a hit. Activity calls are given as the source filed them. The calls were made as follows: active = growth percent below 10; inactive = the rest.
Choose one outcome from this list and give only that: active, inactive

Example entries begin here.
molecule	category
Cc1cc(C)nc(SCC(=O)Nc2cccc(N=Cc3ccccc3O)c2)n1	inactive
CC(C)CCSC1=CC(=O)c2ccccc2C1=O	inactive

Qu. Call for entry `COCCCNc1nc(NC(=O)c2cc(OC)cc(OC)c2)cc(-c2cccnc2)n1` :
Ans. inactive

Qu. Call for entry `COc1ccc(C(=O)CSc2nccc(Nc3ccc(C(=O)O)cc3)n2)cc1` :
Ans. inactive

Qu. Call for entry `COc1ccc(-c2ccc(NNC(=O)c3ccc(F)cc3)nn2)cc1OC` :
Ans. inactive

Qu. Call for entry `Cc1ccc(S(=O)(=O)Nc2ccccc2)cc1N` :
Ans. inactive

Qu. Call for entry `CC(C)C1=NOC(=O)C1=Cc1cn(-c2ccccc2)nc1-c1ccccc1` :
Ans. inactive

Qu. Call for entry C=CCCC1(C)NC(=O)NC1=O (stereo unspecified) :
Ans. inactive

Qu. Call for entry `CCN=Cc1c(O)c(O)c(C(C)C)c2cc(C)c(-c3c(C)cc4c(C(C)C)c(O)c(O)c(C=NCC)c4c3O)c(O)c12` :
Ans. inactive

Qu. Call for entry `Nc1ccc(NC(=O)c2ccccc2)c2c1C(=O)c1ccccc1C2=O` :
Ans. inactive

Qu. Call for entry `Cc1cc2c(C(C)C)c(O)c(O)c(C=NCc3ccoc3)c2c(O)c1-c1c(C)cc2c(C(C)C)c(O)c(O)c(C=NCc3ccco3)c2c1O` :
Ans. inactive

---

Below, each entry is listed with its recorded growth.
tested on: EKVX NSCLC; assay: NCI-60 one-dose screen, 48 h (100 = growth as untreated, 0 = no growth, -100 = all killed); details: 10 µM unless noted
This is part of a sample that, as a whole, favours compounds with a hit. Of some 83,000 tested, about 20% had one in any assay.
Only the number, expressed in %, is required.

Use these answered entries as a reference point.
smilesRecord	unitsText	growth
CSc1nc(N)c(N=Nc2ccc(S(=O)(=O)Nc3nnc(C)s3)cc2)c(=O)[nH]1	%	155
COc1cc2c(cc1OCCCN1CCN(CCCOc3cc4c(cc3OC)C(=O)N3C[C@H](F)C[C@H]3C=N4)CC1)N=C[C@@H]1C[C@@H](F)CN1C2=O	%	-34.3
c1cc2ccc1CNCCN1CCNCc3ccc(cc3)Oc3ccc(cc3)CNCCN(CCNCc3ccc(cc3)O2)CCNCc2ccc(cc2)Oc2ccc(cc2)CNCC1	%	15.2
CCN(CC)CCS(=O)(=O)CCNc1ccnc2cc(Cl)ccc12	%	26.7

Qu. Hello, please tell me recorded growth for this one: `O=C1CN(Cc2ccc(C(=O)NO)cc2)C(=O)[C@@H](Cc2ccccc2)N1`
Ans. 98.9

---

Below, each entry is listed with its recorded growth.
tested on: IGROV1 ovarian; assay: NCI-60 one-dose screen, 48 h (100 = growth as untreated, 0 = no growth, -100 = all killed); details: 10 µM unless noted
This is part of a sample that, as a whole, favours compounds with a hit. Of some 83,000 tested, about 20% had one in any assay. Calls of active or inactive are those of the source. Rule for the calls: active = growth percent below 10; inactive = the rest.

smilesRecord	growth
COc1ccc(-c2cc(-c3ccccc3)nc(SCCCCCC(=O)NO)n2)cc1	51.7% (inactive)

Qu. Hello, please tell me recorded growth for this one: `CCN(CC)c1ccc(/C=C/c2ccc3cc(C)ccc3[n+]2CC)cc1`
Ans. 26.5% (inactive)

Qu. Hello, please tell me recorded growth for this one: `CCOc1ccc(/C=C(\C#N)c2cc3ccccc3[nH]2)cc1`
Ans. 56% (inactive)

Qu. Hello, please tell me recorded growth for this one: `CC[C@]12C=CCN3CC[C@@]4(c5ccc(OC)cc5N(C)[C@H]4[C@@](O)(C(=O)OC)[C@@H]1OC(=O)CCC(=O)O[C@H]1CC[C@H]4[C@@H]5CCC6=CC(=O)CC[C@@H]6[C@H]5CC[C@]14C)[C@@H]32`
Ans. -46.3% [100 µM] (active)

Qu. Hello, please tell me recorded growth for this one: `CC(=O)Nc1ccc(C=Nc2ccc3ccccc3c2)cc1`
Ans. 105% (inactive)

Qu. Hello, please tell me recorded growth for this one: `CCOC(=O)c1cc(C(=O)c2ccc(OC)c(OC)c2)n2ccc(-c3ccccn3)cc12`
Ans. 54.7% (inactive)

---

tested on: LOX IMVI melanoma; assay: NCI-60 one-dose screen, 48 h; details: 10 µM unless noted
Compounds without any hit were thinned out: in the full panel of roughly 83,000, 20% have a hit. Calls of active or inactive are those of the source. Rule for the calls: active = growth percent below 10; inactive = the rest.
Choose one outcome from this list and give only that: class 1 (active), class 0 (inactive)

Example entries begin here.
compound	category
C=C(C)[C@@H]1CC[C@]2(C(=O)NCCCCCCN(CCCN)CCCN)CC[C@]3(C)[C@H](CC[C@@H]4[C@@]5(C)CC[C@H](OCCCN)C(C)(C)[C@@H]5CC[C@]43C)[C@@H]12	class 1
C=C(C)[C@@H]1CC[C@]2(C(=O)OC)CC[C@]3(C)[C@H](CC[C@@H]4[C@@]5(C)CC/C(=N\OCCC(=NCCC#N)NOCCC#N)C(C)(C)[C@@H]5CC[C@]43C)[C@@H]12	class 0
C=C(C)[C@@H]1CC[C@]2(C(=O)NCCNCCNC(=O)OC(C)(C)C)CC[C@]3(C)[C@H](CC[C@@H]4[C@@]5(C)CCC(=O)C(C)(C)[C@@H]5CC[C@]43C)[C@@H]12	class 0
COc1ccc(OC)c(NC=O)c1	class 0
c1ccc2c(c1)CN(CCCN1CCOCC1)C2	class 0

Now for a further compound.
Qu. Call for entry `CC(C)[C@H]1COC(=O)N1[C@@H]1C(=O)N([C@@H](CCC(=O)N2CCN(C3CCCC3)CC2)C(=O)N[C@@H]2CCCc3ccccc32)[C@@H]1/C=C/c1cccc(Cl)c1` :
Ans. class 1

---

tested on: MCF7 breast; assay: NCI-60 one-dose screen, 48 h (100 = growth as untreated, 0 = no growth, -100 = all killed); settings: 10 µM unless noted
Compounds without any hit were thinned out: in the full panel of roughly 83,000, 20% have a hit.
Threshold 40%: growth strictly smaller gives Condition met, otherwise Condition not met.

Example entries begin here.
compound	assaySystem	category
COc1ccc(C(=O)CSc2nnc(-c3cc(-c4ccccc4)nc4ccccc34)o2)cc1	MCF7 breast	Condition not met
O=C1/C(=C\c2cn(CC(O)CN3CCCCC3)c3ccccc23)c2ccccc2N1c1c(Cl)cccc1Cl (centres undefined)	MCF7 breast	Condition met
CNC(=O)c1cc(Oc2ccc3nc(NC(=O)c4ccc5ncccc5c4)sc3c2)ccn1	MCF7 breast	Condition not met
Cn1cc(-c2noc(-c3cn(C)c4ncc(F)cc34)n2)c2cc(Cl)ccc21	MCF7 breast	Condition met
CCOC(=O)c1nn(C2CCCCO2)c2ccc(NC(=O)Cn3nnc4ccccc43)cc12 (centres undefined)	MCF7 breast	Condition not met
Nc1ccc(NC(=O)c2ccccc2)c2c1C(=O)c1ccccc1C2=O	MCF7 breast	Condition not met
CCOc1ccc(S(=O)(=O)Nc2ccc3c(c2)N(S(=O)(=O)CC)CCC3)cc1	MCF7 breast	Condition not met
COc1ccc(C2CC(c3cc(OC)c(OC)c(OC)c3)=NN2C(C)=O)cc1OCC(=O)Nc1nc2ccc(C(F)(F)F)cc2s1 (centres undefined)	MCF7 breast	Condition not met

Now for a further compound.
Qu. growth under 40%? Item: `COc1cc2c(cc1OCCCN1CCN(CCCOc3cc4c(cc3OC)C(=O)N3C[C@H](F)C[C@H]3C=N4)CC1)N=C[C@@H]1C[C@@H](F)CN1C2=O`
Ans. Condition met

---

System: MDA-MB-231 breast
Experiment: NCI-60 one-dose screen, 48 h (100 = growth as untreated, 0 = no growth, -100 = all killed)
Conditions: 10 µM unless noted
Method: Cells are grown in 96 well plates and exposed to the test compound for 48 hours. Compounds are tested at a single concentration, which is 10^-5 M for most compounds. The reported endpoint is percent growth (GI% or GIPRCNT), where numbers from 0 - 100% represent growth inhibition, and numbers from -100% - 0 represent cell death. For example, a value of 40 represents 60% growth inhibition. A value of 0 means no net growth occurred over the course of the experiment. […]
This is part of a sample that, as a whole, favours compounds with a hit. Of some 83,000 tested, about 20% had one in any assay. Active and inactive are the calls of the source. Rule for the calls: active = growth percent below 10; inactive = the rest.
Below, each entry is listed with its recorded growth.

Use these answered entries as a reference point.
compound	growth
CC(C)C1=NOC(=O)C1=Cc1cn(-c2ccccc2)nc1-c1ccc(Br)cc1	91.5% (inactive)
CCN(CC)CCSC(=O)C(O)(c1ccccc1)C1CCCC1 (stereo not given)	97.9% (inactive)
CC(=O)O.CC(=O)O.O.[Fe]	99.2% (inactive)
COc1ccc(C(=O)CCC(=O)O)cc1	80.4% (inactive)

Let's switch to this compound now.
Qu. Hello, please tell me recorded growth for this one: `C=C(C)[C@@H]1CC[C@]2(C(=O)NCCCCCCN(CCCN)CCCN)CC[C@]3(C)[C@H](CC[C@@H]4[C@@]5(C)CC[C@H](OCCCN)C(C)(C)[C@@H]5CC[C@]43C)[C@@H]12`
Ans. 37.3% [100 µM] (inactive)
